All figures here come from PubChem BioAssay AID1963445.

# System: MCF7 complex spheroid growth, % test/control
# experiment: Anticancer human tumor MCF7 cell line growth inhibition [Asc];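 note: spheroids exposed to compounds for 7 days; 100% = DMSO vehicle control wells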
# run-conditions: second compound 0.3 µM; first compound 1 µM; stronger effect = lower value
# Text: Multicellular complex tumor spheroid response to apoptosis pathway targeting inhibitors Alrizomadlin, Pelcitoclax, and Dasminapant in combination with a variety of drugs and investigational agents in selected tumor cell lines […] Compounds. […] If the clinical Cmax for an agent had not been determined, the highest concentration tested was 10 microM. […]
Sorting guide: entries reporting viability, T/C beneath 30% go in the Y pile, the rest go in the N pile.

Qu. I wonder whether C=CC(=O)N1CCN(c2nc(=O)n(-c3c(C)ccnc3C(C)C)c3nc(-c4c(O)cccc4F)c(F)cc23)C(C)C1 (stereo not drawn) + CCN1C(C(=O)NC23CCC(C(=O)O)(CC2)CC3)C(c2cccc(Cl)c2F)C2(C(=O)Nc3cc(Cl)ccc32)C12CCCCC2 has viability, T/C below 30%. Can you tell?
Ans. N

Qu. Another molecule to look at: CNC(C)C(=O)NC1CN(S(=O)(=O)c2cccc(S(=O)(=O)N3CCC4CCC(C(=O)NC(c5ccccc5)c5ccccc5)N4C(=O)C(NC(=O)C(C)NC)C3)c2)CCC2CCC(C(=O)NC(c3ccccc3)c3ccccc3)N2C1=O (stereo not drawn) + CCN1C(C(=O)NC23CCC(C(=O)O)(CC2)CC3)C(c2cccc(Cl)c2F)C2(C(=O)Nc3cc(Cl)ccc32)C12CCCCC2
Ans. Y

Qu. Follow-up item: CCN1CCN(Cc2ccc(Nc3ncc(F)c(-c4cc(F)c5nc(C)n(C(C)C)c5c4)n3)nc2)CC1 + CCN1C(C(=O)NC23CCC(C(=O)O)(CC2)CC3)C(c2cccc(Cl)c2F)C2(C(=O)Nc3cc(Cl)ccc32)C12CCCCC2
Ans. N

Qu. Try the molecule COc1c(OCCCN2CCOCC2)ccc2c3n(c(=NC(=O)c4cnc(N)nc4)nc12)CCN3 + CCN1C(C(=O)NC23CCC(C(=O)O)(CC2)CC3)C(c2cccc(Cl)c2F)C2(C(=O)Nc3cc(Cl)ccc32)C12CCCCC2
Ans. Y

###

viability, T/C: recorded values
# Tested on: MCF7 complex spheroid growth, % test/control
# experiment: Anticancer human tumor MCF7 cell line growth inhibition [Asc];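 note: spheroids exposed to compounds for 7 days; 100% = DMSO vehicle control wells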
# run-conditions: second compound 0.1 µM; first compound 0.00316 µM; stronger effect = lower value
Give just the numeric value; % need not be written.

>  <molecule>
CCN1CCN(Cc2ccc(Nc3ncc(F)c(-c4cc(F)c5nc(C)n(C(C)C)c5c4)n3)nc2)CC1 + CNC(C)C(=O)NC1CN(S(=O)(=O)c2cccc(S(=O)(=O)N3CCC4CCC(C(=O)NC(c5ccccc5)c5ccccc5)N4C(=O)C(NC(=O)C(C)NC)C3)c2)CCC2CCC(C(=O)NC(c3ccccc3)c3ccccc3)N2C1=O

>  <target-system>
MCF7 complex spheroid growth, % test/control

>  <unit-abbreviation>
%

>  <endpoint-result>
12.2

$$$$
>  <molecule>
O=C(c1ccc(F)c(F)c1Nc1ccc(I)cc1F)N1CC(O)([C@@H]2CCCCN2)C1 + Cc1c(S(C)(=O)=O)c(-c2cc(F)cc(N3CCN(c4ccc(NS(=O)(=O)c5ccc(NC(CCN6CCC(C(=O)OCCCP(=O)(O)O)CC6)CSc6ccccc6)c(S(=O)(=O)C(F)(F)F)c5)cc4)CC3)c2)c(-c2ccc(Cl)cc2)n1C(C)C

>  <target-system>
MCF7 complex spheroid growth, % test/control

>  <unit-abbreviation>
%

>  <endpoint-result>
101

$$$$
>  <molecule>
COc1c(OCCCN2CCOCC2)ccc2c3n(c(=NC(=O)c4cnc(N)nc4)nc12)CCN3 + Cc1c(S(C)(=O)=O)c(-c2cc(F)cc(N3CCN(c4ccc(NS(=O)(=O)c5ccc(NC(CCN6CCC(C(=O)OCCCP(=O)(O)O)CC6)CSc6ccccc6)c(S(=O)(=O)C(F)(F)F)c5)cc4)CC3)c2)c(-c2ccc(Cl)cc2)n1C(C)C

>  <target-system>
MCF7 complex spheroid growth, % test/control

>  <unit-abbreviation>
%

>  <endpoint-result>
77.6

$$$$

Qu. Entry CCN1CCN(Cc2ccc(Nc3ncc(F)c(-c4cc(F)c5nc(C)n(C(C)C)c5c4)n3)nc2)CC1 + Cc1c(S(C)(=O)=O)c(-c2cc(F)cc(N3CCN(c4ccc(NS(=O)(=O)c5ccc(NC(CCN6CCC(C(=O)OCCCP(=O)(O)O)CC6)CSc6ccccc6)c(S(=O)(=O)C(F)(F)F)c5)cc4)CC3)c2)c(-c2ccc(Cl)cc2)n1C(C)C : reported viability, T/C = ?
Ans. 92.8
